// provenance: the kinase profiling compilation of Christmann-Franck et al. (2016)

# target_or_test_system: UniProtKB O15264
# Sequence (O15264 whole entry, looked up): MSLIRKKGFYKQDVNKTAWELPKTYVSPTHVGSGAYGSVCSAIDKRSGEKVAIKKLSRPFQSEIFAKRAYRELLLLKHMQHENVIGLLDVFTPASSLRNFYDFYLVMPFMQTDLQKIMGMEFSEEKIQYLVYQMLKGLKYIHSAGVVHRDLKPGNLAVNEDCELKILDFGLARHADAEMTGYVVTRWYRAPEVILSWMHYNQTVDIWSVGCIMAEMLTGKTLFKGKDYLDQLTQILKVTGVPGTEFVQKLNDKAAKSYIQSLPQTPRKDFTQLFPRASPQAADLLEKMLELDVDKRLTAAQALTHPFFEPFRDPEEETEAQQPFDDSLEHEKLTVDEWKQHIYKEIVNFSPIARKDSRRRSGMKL
# experiment_notes: radiometric filter-binding kinase assay
# assay_setup: compound 10.0 µM
measurement_type: residual activity (%)

Check out these entries, answers already filled in.
molecule | recorded_result
NC(=O)c1cc(-c2ccnc(NC3CCCCC3)c2)nc(N2CCNCC2)c1 | 50
Cn1nc(Nc2ccc(F)cc2)c2c(N)ncnc21 | 109

I = Cc1ccc(=O)n(-c2ccccc2)c1
II = NC(=O)Nc1ccc2c(c1)/C(=C/c1cc(-c3cccnc3)c[nH]1)C(=O)N2
Q) Among I and II , whose measured residual activity is the smaller figure? Label of pick, please.
A) II

###

# target_or_test_system: MAPK11 (human) (UniProt Q15759)
# Sequence (Q15759 whole entry, looked up): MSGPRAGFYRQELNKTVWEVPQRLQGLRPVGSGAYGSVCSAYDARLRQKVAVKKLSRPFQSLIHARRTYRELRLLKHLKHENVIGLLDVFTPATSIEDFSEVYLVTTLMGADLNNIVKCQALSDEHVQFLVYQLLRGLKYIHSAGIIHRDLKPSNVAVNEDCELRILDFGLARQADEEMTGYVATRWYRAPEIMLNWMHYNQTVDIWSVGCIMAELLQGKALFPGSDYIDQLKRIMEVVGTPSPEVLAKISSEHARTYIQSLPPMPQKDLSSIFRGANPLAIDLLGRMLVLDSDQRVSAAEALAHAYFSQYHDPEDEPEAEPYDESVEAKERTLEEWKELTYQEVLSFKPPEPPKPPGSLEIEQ
# experiment_notes: radiometric filter-binding kinase assay
# assay_setup: compound 10.0 µM
measurement_type: residual activity (%)

molecule | units_of_measure | residual activity
CNc1nc(-c2ccc3c(N)n[nH]c3c2)cc(N2C[C@@H](C(=O)NC3CCCCC3)CC[C@H]2C)n1 | % | 109
Cc1nc(-c2ccc(OCC(C)C)c(C#N)c2)sc1C(=O)O | % | 91
Cc1ccc(=O)n(-c2ccccc2)c1 | % | 111

a = c1ccc2c(-c3cnn4cc(-c5ccc(N6CCNCC6)cc5)cnc34)ccnc2c1
b = NC(=O)c1cc(-c2ccnc(NC3CCCCC3)c2)nc(N2CCNCC2)c1
Q) Determine, for a and b , which has the greater value of residual activity. Mark your selection by writing its label.
A) a

P = Oc1ccc(/C=C/c2cc(O)cc(O)c2)cc1
Q = NC(=O)Nc1ccc2c(c1)/C(=C/c1cc(-c3cccnc3)c[nH]1)C(=O)N2
Q) Smaller residual activity value? Options are P and Q To answer, give the label that identifies your chosen option.
A) Q
(Q: 49%, P: 93%)
